- System: Vero E6
- assay_details: relative viability EC50 (midpoint between 100% and the lowest measured viability); higher = less toxic
- test_parameters: 72 h
Structures can show the parent of a compound that is named as a salt.
Reported values of relative viability EC50 for individual entries

compound: CNCCn1c(=O)c2cc(OC)c(OC)cc2c2cnc3cc4c(cc3c21)OCO4
relative viability EC50: 0.891 µM
//
compound: CN(C(=O)Cc1ccccc1)[C@H](CN1CCCC1)c1ccccc1
relative viability EC50: > 10 µM
//
compound: NCCc1c[nH]c2ccc(O)cc12
relative viability EC50: > 10 µM
//
compound: CC(=O)OCC1=C(C(=O)O)N2C(=O)[C@@H](NC(=O)CS/C(=N/C(C)C)NC(C)C)[C@H]2SC1
relative viability EC50: > 10 µM
//
compound: CC[C@H]1OC(=O)[C@H](C)C(=O)[C@H](C)[C@@H](O[C@@H]2O[C@H](C)C[C@H](N(C)C)[C@H]2O)[C@](C)(OC)C[C@@H](C)C(=O)[C@H](C)[C@H]2N(CCCCn3cnc(-c4cccnc4)c3)C(=O)O[C@]12C
relative viability EC50: > 10 µM
//
compound: Cc1cc2c(OCC(CNC(C)(C)C)OC(=O)c3ccccc3)cccc2[nH]1 (configuration not stated)
relative viability EC50: > 10 µM
//
compound: O=C1CC[C@@]2(O)[C@H]3Cc4ccc(O)c5c4[C@@]2(CCN3CC2CC2)[C@H]1O5 [NALTREXONE HYDROCHLORIDE]
relative viability EC50: > 10 µM

###

- Tested on: Caco-2
- assay_details: cell viability relative to DMSO; higher = less toxic
- test_parameters: 72 h; 10000 nM
Where a name gives a salt, the structure may show the parent alone.
Reported values of cell viability for individual entries
quantity_kind: cell viability (%)

compound: CN[C@@H]1[C@H](O[C@H]2[C@H](O[C@H]3[C@H](O)[C@@H](O)[C@H](N=C(N)N)[C@@H](O)[C@@H]3N=C(N)N)O[C@@H](C)[C@]2(O)C=O)O[C@@H](CO)[C@H](O)[C@H]1O [STREPTOMYCIN SULFATE [5mM; 10% aq DMSO + 5mM ethanolamine]]
quantity_kind: cell viability
unit_text: %
val: 98.1
//
compound: C[C@@H](N[C@H]1CCCC[C@@H]1NC(=O)c1ccc(Cl)cc1)c1cccc2ccccc12
quantity_kind: cell viability
unit_text: %
val: 92.9
//
compound: O=C(Nc1cc2cc[nH]c2cn1)c1ccccc1
quantity_kind: cell viability
unit_text: %
val: 77.3
//
compound: CC(COc1ccccc1)N(CCCl)Cc1ccccc1 (configuration not stated)
quantity_kind: cell viability
unit_text: %
val: 86
//
compound: c1ccc(CN(CC2=NCCN2)c2ccccc2)cc1
quantity_kind: cell viability
unit_text: %
val: 70.7
//
compound: CC(=O)N1CCN(CCOc2ccc(C3CCN(C4=Nn5c(nnc5C(F)(F)F)CC4)CC3)cc2)CC1
quantity_kind: cell viability
unit_text: %
val: 75.9
//
compound: CC[C@@H](c1cccc(O)c1)[C@@H](C)CN(C)C [Tapentadol (hydrochloride)]
quantity_kind: cell viability
unit_text: %
val: 107

###

- Test system: Calu-3
- assay_details: cell viability relative to DMSO; higher = less toxic
- test_parameters: 72 h; 1 nM

molecule: C=C(c1ccc(C(=O)O)cc1)c1cc2c(cc1C)C(C)(C)CCC2(C)C [bexarotene]
cell viability / %: 92.5

molecule: C#C[C@]1(O)CC[C@H]2[C@@H]3CCC4=CC(=O)CCC4=C3C=C[C@@]21CC [gestrinone]
cell viability / %: 106

molecule: C[C@H](CCC(=O)O)[C@H]1CC[C@H]2[C@@H]3C[C@H](O)[C@@H]4C[C@H](O)CC[C@]4(C)[C@H]3CC[C@]12C [Hyodeoxycholic acid (HDCA)]
cell viability / %: 108

molecule: Cc1cc(C(=CNc2ccc(Cl)cc2)C(=O)Nc2ccc(Cl)cc2)on1 [CCMI]
cell viability / %: 104

###

Reported values of cell viability for individual entries
- Test system: U2OS
- assay_details: cell viability relative to DMSO; higher = less toxic
- test_parameters: 72 h; 100 nM

compound: N[C@H](C(=O)O)c1cc(O)no1 [ibotenic-acid]
target_or_test_system: U2OS
cell viability [%]: 96.6

compound: COc1ccc2nc3[nH]nc(C)c3c(NCCOCCO)c2c1
target_or_test_system: U2OS
cell viability [%]: 95.9

compound: O=C1CC(=O)c2c(Cl)c(Cl)c(Cl)c(Cl)c21 [TCID]
target_or_test_system: U2OS
cell viability [%]: 106

compound: CC(Cc1cccc(C(F)(F)F)c1)NCCOC(=O)c1ccccc1 (configuration not stated) [benfluorex]
target_or_test_system: U2OS
cell viability [%]: 105

compound: O=C(N[C@H]1CN2CCC1CC2)c1cc2cccc(Cl)c2s1 [EVP-6124]
target_or_test_system: U2OS
cell viability [%]: 95

compound: Nc1nc(OCC2CCCCC2)c2nc[nH]c2n1 [NU-2058]
target_or_test_system: U2OS
cell viability [%]: 94.6

compound: CNC(=O)c1cccc(NC(=O)N2CCC(Oc3ccccc3Cl)CC2)c1
target_or_test_system: U2OS
cell viability [%]: 97.3

compound: CCCOc1ccc(C(=O)OCCN(CC)CC)cc1N [proxymetacaine]
target_or_test_system: U2OS
cell viability [%]: 101

compound: OCCN1CCN(CC/C=C2/c3ccccc3Sc3ccc(Cl)cc32)CC1 [zuclopenthixol]
target_or_test_system: U2OS
cell viability [%]: 99.6

compound: CC(C)CC(=O)Nc1n[nH]c2c1CN(C(=O)C1CCN(C)CC1)C2(C)C
target_or_test_system: U2OS
cell viability [%]: 94

compound: C[C@H]1C[C@@H]2[C@H]([C@@H](O)C[C@@]3(C)[C@H]2CC[C@]3(O)C(=O)COC(=O)CCC(=O)O)[C@@]2(C)C=CC(=O)C=C12 [methylprednisolone-sodium-succinate]
target_or_test_system: U2OS
cell viability [%]: 95

compound: CCc1cc2c(s1)-n1c(C)nnc1CN=C2c1ccccc1Cl [etizolam]
target_or_test_system: U2OS
cell viability [%]: 98.8

###

- Tested on: U2OS
- assay_details: drug sensitivity score (DSS) for viability; higher = more toxic; extreme values may be limits of the assay
- test_parameters: 72 h
quantity_kind: drug sensitivity score

molecule: CCN(CC)C(=O)N[C@H]1C=C2c3cccc4[nH]cc(c34)C[C@H]2N(C)C1 [lisuride]
val: 0

molecule: O=C(O)c1cc(N2N=C(C(F)(F)F)/C(=C/c3ccc(-c4ccccc4)o3)C2=O)ccc1Cl
val: 0

molecule: N[C@H](C(=O)O)c1cc(O)no1
val: 0

molecule: CNc1nc(-c2ccc3c(N)n[nH]c3c2)cc(N2C[C@@H](C(=O)NC3CCCCC3)CC[C@H]2C)n1
val: 3.2

molecule: Ic1cc(-c2ccccc2)ncn1
val: 0

molecule: COc1ccc(C(=O)C2CCN(CC(=O)N(Cc3nc4c(c(=O)[nH]3)COCC4)CC3CC3)CC2)cc1
val: 0.3

###

Reported values of cell viability for individual entries
- Test system: U2OS
- assay_details: cell viability relative to DMSO; higher = less toxic
- test_parameters: 72 h; 10000 nM

compound: C[n+]1c2cc(N)ccc2cc2ccc(N)cc21.Nc1ccc2cc3ccc(N)cc3nc2c1 [acriflavine]
unit_text: %
cell viability: 0
--
compound: COc1ccc(C2C(=O)c3ccccc3C2=O)cc1 [anisindione]
unit_text: %
cell viability: 105
--
compound: CC(C(=O)O)c1ccc2c(c1)CC(=O)c1ccccc1S2 (configuration not stated) [zaltoprofen]
unit_text: %
cell viability: 101
--
compound: CNC(=O)[C@@H](Cc1ccccc1)N(C)C(=O)[C@@H](Cc1ccc2ccccc2c1)N(C)C(=O)/C=C/CC(C)(C)N [tabimorelin]
unit_text: %
cell viability: 98.3
--
compound: CC(COc1ccccc1)N(CCCl)Cc1ccccc1 (configuration not stated) [phenoxybenzamine]
unit_text: %
cell viability: 93.6
--
compound: O=C(O[C@@H]1Cc2c(O)cc(O)cc2O[C@@H]1c1ccc(O)c(O)c1)c1cc(O)c(O)c(O)c1 [epicatechin-gallate-(-)]
unit_text: %
cell viability: 101
--
compound: CC[C@H]1OC(=O)[C@H](C)C(=O)[C@H](C)[C@@H](O[C@@H]2O[C@H](C)C[C@H](N(C)C)[C@H]2O)[C@](C)(OC)C[C@@H](C)C(=O)[C@H](C)[C@H]2N(CCCCn3cnc(-c4cccnc4)c3)C(=O)O[C@]12C [telithromycin]
unit_text: %
cell viability: 97

###

- Tested on: HepG2
- assay_details: cell viability relative to DMSO; higher = less toxic
- test_parameters: 72 h; 10 nM
quantity_kind: cell viability (%)

compound: CC(C)Oc1ccc2c(=O)c3cc(C(=O)O)ccc3oc2c1 [AH6809]
quantity_kind: cell viability
unit_text: %
val: 97.1
--
compound: Cc1cc2nc3c(=O)[nH]c(=O)nc-3n(C[C@H](O)[C@H](O)[C@H](O)CO)c2cc1C [riboflavin]
quantity_kind: cell viability
unit_text: %
val: 85
--
compound: CCCN(CCC)C(=O)C(CCC(=O)O)NC(=O)c1ccccc1 (stereo not given) [proglumide]
quantity_kind: cell viability
unit_text: %
val: 104
--
compound: CNC(=O)c1ccc(-c2cnc3ncc(Cc4ccc5ncccc5c4)n3n2)cc1F [INC-280]
quantity_kind: cell viability
unit_text: %
val: 100
--
compound: COc1ccc(C2C(=O)c3ccccc3C2=O)cc1 [anisindione]
quantity_kind: cell viability
unit_text: %
val: 111
